target: human Claudin18.2 (human); assay: cell-based or functional assay
Some binders, each annotated with its measured CDC EC50.
The answer is to be given in µg/mL; state only the numeric part.

Binder	CDC EC50 / µg/mL
186F7E10 (antibody, V domains shown) VH: EVMLVESGGGLVKPGGSLKLSCAASRFTLNSYAMSWIRQTPEKKLEWVATITSGVSHTYYFDSVKGRFTISRDTAKNTLNLQMNSLRSEDTAVYYCARLYYGNSLDYWGQGTSVTVSS VL: DIVMTQSPSSLTVTAGEKVTVSCKSSQSLLNSGNQKNYLTWYQQKPGQPPKLLIYWASTRESGVPDRFTGSGSGTDFTLTISSVQSEDLAVYYCQNNYIYPLTFGAGTTLELK	1.27

Turning to the following binder.
Provide one value: measured CDC EC50 of 418B8B10 (antibody, V domains shown) VH: DVQLVESGGGLVQPGGSRKLSCAASGFTFSSFGMHWVRQAPEKGLEWVAYISSGSSPIYYTDTVKGRFTISRDNPKNTLFLQMTSLRSEDTAMYFCARFYYGNSFDHWGQGTLVTVSA VL: DIVMTQSPSSLTVTAGEKVSMSCKSSQSLFNRGNQKSYLTWYQQRPGQPPKLLIYWASTRESGVPDRFTGSGSGTDFTLTISSVQAEDLAVYYCQNNYIYPLTFGAGTKLELK 5.6
